System: Huh7 ET (luc-ubi-neo/ET) cells
PROTOCOL: in vitro
SETUP_CONDITIONS: read-out: Cytotoxicity IC50; 72 hr
QUANTITY_MEASURED: IC50 (µM)
Answer format: numeric, µM implied, no suffix.

Find the recorded IC50 belonging to NC1CC1c1ccc(-c2cccc(O)c2)cc1 (stereo not shown) and report it. 50.6

---

PROTOCOL: in vitro
SETUP_CONDITIONS: human, Cytotoxicity IC50, 72 hr
Procedure: The effect of drug added in triplicate at concentrations of from e.g., 0 to 100 uM using half log dilutions on HCV RNA-derived LUC activity and cytotoxicity. Human interferon alpha-2b is included in each run as a positive control compound. […] Compound cytotoxicity is assessed as the percent viable cells relative to the untreated cell controls.
QUANTITY_MEASURED: IC50 (µM)
All answers are understood in µM, so give the number only.

Please report the recorded IC50 for NC1CC1c1ccc(-c2cccc(O)c2)cc1 (stereo not shown) . 54.8
